# measurement.target: truncated PI3Kα (p110α/iSH2 p85α) (Homo sapiens (Human), UniProt P42336)
# Sequence (P42336 whole entry, the tested form may be a part): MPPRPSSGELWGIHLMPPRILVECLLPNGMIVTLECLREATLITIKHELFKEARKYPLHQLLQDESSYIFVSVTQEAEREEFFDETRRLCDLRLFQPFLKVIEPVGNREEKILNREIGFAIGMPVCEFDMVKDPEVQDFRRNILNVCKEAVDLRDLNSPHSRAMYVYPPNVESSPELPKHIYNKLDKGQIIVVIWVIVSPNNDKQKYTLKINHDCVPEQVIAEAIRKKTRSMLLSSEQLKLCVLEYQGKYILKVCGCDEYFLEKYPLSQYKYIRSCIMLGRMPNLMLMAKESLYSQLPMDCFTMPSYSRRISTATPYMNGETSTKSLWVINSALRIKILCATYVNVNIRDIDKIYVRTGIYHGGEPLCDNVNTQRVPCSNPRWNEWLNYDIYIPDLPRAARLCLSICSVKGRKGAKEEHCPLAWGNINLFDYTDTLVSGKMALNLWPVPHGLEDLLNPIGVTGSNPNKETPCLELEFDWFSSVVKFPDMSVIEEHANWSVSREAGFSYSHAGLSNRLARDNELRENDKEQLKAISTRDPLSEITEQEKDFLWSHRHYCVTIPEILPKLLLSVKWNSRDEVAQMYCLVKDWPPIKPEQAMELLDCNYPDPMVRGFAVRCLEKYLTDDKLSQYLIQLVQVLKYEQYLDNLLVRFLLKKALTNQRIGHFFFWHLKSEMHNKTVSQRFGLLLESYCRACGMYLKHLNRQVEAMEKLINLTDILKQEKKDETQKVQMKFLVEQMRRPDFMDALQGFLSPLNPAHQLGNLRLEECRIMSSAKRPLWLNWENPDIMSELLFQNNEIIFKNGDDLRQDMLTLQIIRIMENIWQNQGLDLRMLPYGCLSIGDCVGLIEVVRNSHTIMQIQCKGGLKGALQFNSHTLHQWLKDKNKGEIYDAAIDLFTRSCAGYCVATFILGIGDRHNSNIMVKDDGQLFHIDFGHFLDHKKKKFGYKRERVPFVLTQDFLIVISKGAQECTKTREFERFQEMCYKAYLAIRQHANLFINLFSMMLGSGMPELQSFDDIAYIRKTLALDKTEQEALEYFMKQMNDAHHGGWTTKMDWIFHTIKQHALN
# protocol.description: PI3KA_Act fluorescence polarization kinase assay (Ki)
# Assay type: biochemical
# assay.conditions: 1 mM ATP
Documented PI3KA_Act Ki across a set of compounds

compound	PI3KA_Act Ki
CC(=O)N1C[C@@H](F)[C@@H](N2CCc3c(-c4cnc(N)nc4)nc(N4CCOCC4)nc32)C1 (single isomer, unassigned) [Example 74]	2.441 nM
C[C@H]1COCCN1c1nc(-c2cnc(N)nc2)c2c(n1)N([C@@]1(C)CNC[C@@H]1C)CC2.Cl [Example 468]	0.634 nM
CC1(N2CCc3c(-c4cnc(N)nc4)nc(N4CCOCC4)nc32)CCN(S(C)(=O)=O)C1 (racemic) [Example 146]	0.015 nM
C[C@H]1COCCN1c1nc(-c2cnc(N)nc2)c2c(n1)N([C@@]1(C)CCN(C(=O)[C@@H](N)CF)C1)CC2.Cl [Example 479]	0.026 nM
CN1CC[C@](C)(N2CCc3c(-c4cnc(N)nc4)nc(N4CCOCC4)nc32)C1 [Example 418]	0.320 nM
C[C@]1(N2CCc3c(-c4cnc(N)nc4)nc(N4CCOCC4)nc32)CCN(C(=O)[C@@H](N)C(F)(F)F)C1.Cl [Example 313]	0.128 nM
CC[C@]1(N2CCc3c(-c4cnc(N)nc4)nc(N4CCOCC4)nc32)CCN(C(=O)C(C)(C)N)C1.Cl [Example 285]	0.089 nM
